- study target: KPNA4 ARM (Homo sapiens, UniProt O00629)
- Construct: O00629; KPNA4; Arm; 68; 487; pETM33/pETM41; Genescript; made in house; host or cells: bacteria (E. coli BL21(DE3) gold is named only for the phage-selection preparations)
- measurement description: FP competition, KPNA4 ARM major pocket (FITC-Myc probe)
- Format: binding
- settings: FP competition with FITC-Myc320-328 probe for the major pocket; 50 mM KPO4 pH 7.5; n = 3 technical replicates
Where no end group is shown, it is not given here.
measurement kind: IC50 (nM)
Field: numeric (nM). Do not append units.

Some solved cases for reference:
substance	IC50 / nM
DLKRRLDSITSSQSSA-NH2 [KDR]	22000
IPEKKQRLEEATTICL-NH2 [AFF2]	2300
DHQFPAKRPRLSEPQG-NH2 [HJURP]	76
EDSIEPPHKRLCLSSE-NH2 [DMTF1]	130
VEPETKRLKLAASEDH-NH2 [ZRANB3]	240

Request: Look up IC50 for this substance: Ac-YKCRRQRQDQTLELVGL-NH2 [NKX2-5 K194R]
Result: 98000

Request: What IC50 value was documented for this substance, ERENPSKRSRIERDID-NH2 [CTDSPL2] ?
Result: 1900

* * *

- study target: TLN1 PTB (Homo sapiens)
- Construct: Q9Y490; TLN1; PTB; 309; pHH0103; Sidhu Lab (PMID: 33438817); made in house; host or cells: bacteria (E. coli BL21(DE3) gold is named only for the phage-selection preparations)
- measurement description: FP competition, TLN1 PTB
- Type: binding
Where no end group is shown, it is not given here.
Examples of substances with documented pIC50 follow.
Interpret pIC50 as the negative base-10 log of the concentration measured in mol/L.

These solved cases illustrate the format of a correct answer.
substance	study target	pIC50
FPTDERSWVYSPLHYS-NH2 [PIP5K1C]	TLN1 PTB (Homo sapiens)	6.38
AKWDTANNPLYKEATS-NH2 [ITB3]	TLN1 PTB (Homo sapiens)	2.84

Request: Tell me the measured pIC50 of DLIFTDSKLYIPLE-NH2 [TPTE] , please.
Result: 4.82

Request: Tell me the measured pIC50 of VGPLTPLWTYPATAAG-NH2 [NYAP1] , please.
Result: 4.21

* * *

- study target: KEAP1 Kelch (Homo sapiens, UniProt Q14145)
- Construct: Q14145; KEAP1; Kelch; 321; 609; pETM33; Genescript; made in house; host or cells: bacteria (E. coli BL21(DE3) gold is named only for the phage-selection preparations)
- measurement description: FP competition, KEAP1 Kelch
- Format: binding
- settings: FP competition with FITC-NFE2L1 228-243 probe; protein at 4x KD and 10 nM probe in master mix; 50 mM KPO4 pH 7.5; triplicates
pIC50: −log10 of the molar value.
measurement kind: pIC50

Request: // query pIC50 value for entry Ac-VLPDCLTDGSDVVSDY-NH2 [CFAP36]
Result: < 2.69

* * *

- study target: MDM2 SWIB (Homo sapiens)
- Construct: Q00987; MDM2; SWIB; 17; 125; pETM33; Genescript; His-GST (cleaved yes); made in house; host or cells: bacteria (E. coli BL21(DE3) gold is named only for the phage-selection preparations)
- measurement description: FP competition, MDM2 SWIB
- Format: binding
Where no end group is shown, it is not given here.
measurement kind: pIC50
Scale: negative log10 of molar concentration, which is what pIC50 denotes.

Example sequences with recorded pIC50:
entry sequence	pIC50
TPEDDRSFQTVWATVF [KIAA1671]	4.14
THFAELWGHLDHTMFF [RNF115]	5.05

Okay, next one:
Request: Which value of pIC50 has been reported for GFEAQWAALENKSKQR [NUMB] in the records?
Result: 3.89
